Listing of recorded Emax by entry.
# TARGET OF ASSAY: 5-HT2C receptor (Homo sapiens, UniProt P28335)
# Construct: β-galactosidase enzyme-complementation fragment (ProLink-type donor); host or cells: U2OS
# Sequence (P28335 33-458): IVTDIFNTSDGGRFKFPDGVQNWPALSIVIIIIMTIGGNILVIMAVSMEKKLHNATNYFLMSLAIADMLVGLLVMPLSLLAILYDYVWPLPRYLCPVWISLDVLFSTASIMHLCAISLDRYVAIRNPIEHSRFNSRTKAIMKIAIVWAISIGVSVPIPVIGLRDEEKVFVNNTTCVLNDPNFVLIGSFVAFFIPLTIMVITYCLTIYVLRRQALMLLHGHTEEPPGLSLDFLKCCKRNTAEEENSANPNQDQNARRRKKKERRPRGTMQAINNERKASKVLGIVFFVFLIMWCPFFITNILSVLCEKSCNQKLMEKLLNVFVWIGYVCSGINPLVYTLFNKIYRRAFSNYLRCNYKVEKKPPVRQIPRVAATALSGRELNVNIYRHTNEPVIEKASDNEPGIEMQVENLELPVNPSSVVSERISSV
# Sequence (P32121 whole entry partner, the tested form may be a part): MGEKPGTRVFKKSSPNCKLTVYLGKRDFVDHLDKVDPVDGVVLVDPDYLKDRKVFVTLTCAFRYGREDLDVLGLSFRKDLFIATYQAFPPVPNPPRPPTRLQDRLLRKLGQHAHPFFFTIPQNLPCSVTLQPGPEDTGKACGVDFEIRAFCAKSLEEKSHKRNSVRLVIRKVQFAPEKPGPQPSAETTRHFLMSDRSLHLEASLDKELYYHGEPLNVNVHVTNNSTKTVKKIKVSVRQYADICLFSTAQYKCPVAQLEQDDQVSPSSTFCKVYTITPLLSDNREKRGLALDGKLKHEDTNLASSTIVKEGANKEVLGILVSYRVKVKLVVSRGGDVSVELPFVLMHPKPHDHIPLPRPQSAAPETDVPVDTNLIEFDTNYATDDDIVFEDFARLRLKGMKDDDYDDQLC
# TEST SUMMARY: Functional activity: beta-arrestin2 recruitment to the 5-HT2C receptor in U2OS_HTR2C_β-Arrestin cells (DiscoverX)
# Type: cell-based
# COND: relative efficacy: response as percentage of response to 10 μM 5-HT or maximal effect induced by 5-HT (defined as 100%)
Report the figure along with its unit, number first.

{"columns": ["COMPOUND", "OBSERVED PROPERTY", "RESULT VALUE"],
 "data": [
  ["CC1CNCc2cccc3c2N1CCC31CCC1 (centres unmarked) [Example 56]", "Emax", "124%"],
  ["c1cc2c3c(c1)N(CC1CCCC1)CCN3CCNC2 [Example 37]", "Emax", "21%"],
  ["Fc1ccc2c3c1N1CCCC1CN3CCNC2 (centres unmarked) [Example 57, trifluoroacetic acid]", "Emax", "35%"],
  ["c1cc2c3c(c1)C1(CCCC1)CCN3CCNC2 [Example 6]", "Emax", "63%"],
  ["c1cc2c3c(c1)N1CC4CC4C1CN3CCNC2 (centres unmarked) [Example 68]", "Emax", "76%"],
  ["CCCN1CCN2CCNCc3cccc1c32 [Example 70]", "Emax", "63%"]
]}

### Prompt Item CC1(C)CCN2CCNCc3cc(Cl)cc1c32 [Example 19, (2,2,2-trifluoroacetate)] with 5-HT2C receptor (Homo sapiens, UniProt P28335) - Emax?
### Response 25%

### Prompt Lab note: need Emax with 5-HT2C receptor (Homo sapiens, UniProt P28335) for entry c1cc2c3c(c1)N(C1CCC1)CCN3CCNC2 [Example 33, 2,2,2-trifluoroacetate] , please look it up.
### Response 78%

### Prompt Please provide the recorded Emax for CC1CNCc2cccc3c2N1CCN3C1CCCC1 (centres unmarked) [Example 43] , tested on 5-HT2C receptor (Homo sapiens, UniProt P28335).
### Response 59%

### Prompt Please state recorded Emax (tested on 5-HT2C receptor (Homo sapiens, UniProt P28335)) of Cc1cc2c3c(c1)C1(CCC1)CCN3CCNC2 [Example 76, trifluoroacetic acid]
### Response 98%

### Prompt Short answer please: Emax, 5-HT2C receptor (Homo sapiens, UniProt P28335), entry CC1CNCc2cccc3c2N1CC1CCCN31 (centres unmarked) [Example 45]
### Response 77%

---

# key: entry, value: Emax
# TARGET OF ASSAY: 5-HT2C receptor (Homo sapiens, UniProt P28335)
# Construct: β-galactosidase enzyme-complementation fragment (ProLink-type donor); host or cells: U2OS
# TEST SUMMARY: Functional activity: beta-arrestin2 recruitment to the 5-HT2C receptor in U2OS_HTR2C_β-Arrestin cells (DiscoverX)
# Type: cell-based
# COND: relative efficacy: response as percentage of response to 10 μM 5-HT or maximal effect induced by 5-HT (defined as 100%)
Structures can show the parent of a compound that is named as a salt.
# value in %; strip the unit string

Worked examples follow.
{"columns": ["MOLECULE", "TARGET OF ASSAY", "Emax / %"],
 "data": [
  ["Fc1ccc2c3c1C1(CCC1)CCN3CCNC2 [Example 26, hydrochloride]", "5-HT2C receptor (Homo sapiens, UniProt P28335)", 107],
  ["c1cc2c3c(c1)C1(CCC1)CCN3CCNC2 [Example 25, hydrochloride]", "5-HT2C receptor (Homo sapiens, UniProt P28335)", 90],
  ["CC1CNCc2cccc3c2N1CCC31CC1 (stereo not drawn) [Example 48]", "5-HT2C receptor (Homo sapiens, UniProt P28335)", 105],
  ["Cc1ccc2c3c1C1(CCC1)CCN3CCNC2 [Example 67, trifluoroacetic acid]", "5-HT2C receptor (Homo sapiens, UniProt P28335)", 116]
]}

### Prompt For 5-HT2C receptor (Homo sapiens, UniProt P28335), provide Emax of c1cc2c3c(c1)N(C1CCCC1)CCN3CCNC2 [Example 41] please.
### Response 75

### Prompt Find the measured Emax: item c1cc2c3c(c1)N1CCC[C@@H]1CN3CCNC2 [Example 16, (2,2,2-trifluoroacetate)] , target or system 5-HT2C receptor (Homo sapiens, UniProt P28335).
### Response 55

### Prompt So what Emax did CC1(C)CCN2CCNCc3ccc(F)c1c32 [Example 22] get with 5-HT2C receptor (Homo sapiens, UniProt P28335)?
### Response 69

### Prompt So what Emax did CC1(C)CCN2CCNCc3c(F)ccc1c32 [Example 49] get with 5-HT2C receptor (Homo sapiens, UniProt P28335)?
### Response 78

### Prompt Notebook: pull reported Emax for 5-HT2C receptor (Homo sapiens, UniProt P28335), entry c1cc2c3c(c1)N(C1COC1)CCN3CCNC2 [Example 35, 2,2,2-trifluoroacetate]
### Response 112

### Prompt I'm curious: which Emax was measured for CC1CNCc2cccc3c2N1CCN3C1CC1 (stereo not drawn) [Example 42] tested on 5-HT2C receptor (Homo sapiens, UniProt P28335)?
### Response 163

### Prompt API: value(readout=Emax, system=5-HT2C receptor (Homo sapiens, UniProt P28335)) for record c1cc2c3c(c1)N(CC1CC1)CCN3CCNC2 [Example 36]
### Response 31

### Prompt Requested read-out Emax, target or system 5-HT2C receptor (Homo sapiens, UniProt P28335), entry CC1CNCc2ccc(F)c3c2N1CC1CCCN31 (stereo not drawn) [Example 46]
### Response 71

### Prompt Request body: readout Emax, system 5-HT2C receptor (Homo sapiens, UniProt P28335), query c1cc2c3c(c1)N1CCCCCC1CN3CCNC2 (stereo not drawn) [Example 44] . Return the value.
### Response 55

### Prompt Please provide the recorded Emax for CCN1CCN2CCNCc3cccc1c32 [Example 69] , tested on 5-HT2C receptor (Homo sapiens, UniProt P28335).
### Response 54

### Prompt Request: Emax, test system 5-HT2C receptor (Homo sapiens, UniProt P28335), entry CC1(C)CCN2CCNCc3cccc1c32 [Example 1]
### Response 71

### Prompt Report Emax for Cc1ccc2c3c1N1CCCC1CN3CCNC2 (stereo not drawn) [Example 59, trifluoroacetic acid] tested on 5-HT2C receptor (Homo sapiens, UniProt P28335).
### Response 51

### Prompt Value wanted: Emax (5-HT2C receptor (Homo sapiens, UniProt P28335)) of entry CC1CNCc2cccc3c2N1CCC3(C)C (stereo not drawn) [Example 51, 2,2,2-trifluoroacetate]
### Response 102

### Prompt Requested read-out Emax, target or system 5-HT2C receptor (Homo sapiens, UniProt P28335), entry Cc1ccc2c3c1CNCCN3CCC21CCC1 [Example 66]
### Response 53

### Prompt Please state recorded Emax (tested on 5-HT2C receptor (Homo sapiens, UniProt P28335)) of c1cc2c3c(c1)N(C1CC1)CCN3CCNC2 [Example 40]
### Response 131

### Prompt API: value(readout= Emax, system= 5-HT2C receptor (Homo sapiens, UniProt P28335), query= c1cc2c3c(c1)C1(CCN3CCNC2)CC1 [Example 47] )
### Response 59

### Prompt Test system 5-HT2C receptor (Homo sapiens, UniProt P28335); read-out Emax; what value for c1cc2c3c(c1)N1CCC[C@H]1CN3CCNC2 [Example 17, (2,2,2-trifluoroacetate)] ?
### Response 84

---

# TARGET OF ASSAY: 5-HT2C receptor (Homo sapiens, UniProt P28335)
# Construct: β-galactosidase enzyme-complementation fragment (ProLink-type donor); host or cells: U2OS
# TEST SUMMARY: Functional activity: beta-arrestin2 recruitment to the 5-HT2C receptor in U2OS_HTR2C_β-Arrestin cells (DiscoverX)
# Assay type: cell-based
# COND: relative efficacy: response as percentage of response to 10 μM 5-HT or maximal effect induced by 5-HT (defined as 100%)
Measured % efficacy accompanies every entry in the list below.
Write down the numeric answer in % and omit the unit.

{"columns": ["COMPOUND", "SCALE UNIT", "RESULT VALUE"],
 "data": [
  ["CCC1(C)CCN2CCNCc3cccc1c32.O=C(O)C(F)(F)F (single isomer, unassigned) [Example 54]", "%", 24],
  ["CC1CN2CCNCc3cccc(c32)C1(C)C (single isomer, unassigned) [Example 27]", "%", 87],
  ["CC1CN2CCNCc3cccc(c32)C1(C)C (single isomer, unassigned) [Example 28]", "%", 55],
  ["CC1(C(F)(F)F)CCN2CCNCc3cccc1c32 (single isomer, unassigned) [Example 8]", "%", 40],
  ["CC1(C(F)(F)F)CCN2CCNCc3cccc1c32 (single isomer, unassigned) [Example 9]", "%", 61]
]}

API: the following record is the query input.
### Prompt Requested read-out: % efficacy. Entry: CCC1(C)CCN2CCNCc3cccc1c32.O=C(O)C(F)(F)F (single isomer, unassigned) [Example 55]
### Response 26
